Field: Activity. Provide a value for each of the compounds that follow.
Test system: brain
Assay: Antiprion activity against Scrapie prion protein-infected mouse brain cells assessed as remaining PrP-res level at 100 uM after 4 days by Western blotting relative to control
Format: tissue-based
Peptide text beside a SMILES is read from it.
Your answer should be a plain number; it is taken to be in %.

Measured Activity of C[C@H](NC(=O)CNC(=O)[C@@H]1CCCN1C(=O)[C@H](C)NC(=O)[C@H](C)NC(=O)[C@H](C)NC(=O)[C@@H]1CCCN1C(=O)[C@H](C)NC(=O)[C@@H](C)N)C(N)=O : 33

Just so you know, measured Activity for C[C@H](NC(=O)CNC(=O)[C@H](C)NC(=O)[C@@H](C)N)C(=O)N[C@@H](C)C(=O)N[C@@H](C)C(=O)N1CCC[C@H]1C(=O)NCC(=O)N1CCC[C@H]1C(N)=O came out at 88

Per the records, this compound ( C[C@H](NC(=O)CN)C(=O)N1CCC[C@H]1C(N)=O (H-Gly-Ala-Pro-NH2) ) has Activity equal to 32

Activity for C[C@H](NC(=O)[C@@H]1CCCN1)C(=O)N1CCC[C@H]1C(N)=O (H-Pro-Ala-Pro-NH2) is 156
